# peptide microarray binding signal values compiled below
Molecular target: HaloTag-ING2 PHD (mouse Ing2 200-280)
Experiment: peptide microarray binding signal (635 nm), min-max normalized on array (fraction of array maximum); higher = stronger binding
Conditions: peptide region: Unmod H3 variant; binder concentration: 100 nM

binder: VREIAQDFKTDLR [Unmod H3 variant V R E I A Q D F K T D L R]
peptide microarray binding signal: 0.0134

binder: RVTIMPKDIQLAR [Unmod H3 variant R V T I M P K D I Q L A R]
peptide microarray binding signal: 0.0422

binder: TARKSTGGKAPRK [Unmod H3 variant T A R K S T G G K A P R K]
peptide microarray binding signal: 0.019

binder: PRKQLATKAARKS [Unmod H3 variant P R K Q L A T K A A R K S]
peptide microarray binding signal: 0.0163
